# TEST_TARGET: recombinant human FLAP protein (Homo sapiens, UniProt P20292)
# Construct: made in house; host or cells: Sf9 insect cells (membrane fraction, 100,000 x g pellet)
# Sequence (P20292 whole entry): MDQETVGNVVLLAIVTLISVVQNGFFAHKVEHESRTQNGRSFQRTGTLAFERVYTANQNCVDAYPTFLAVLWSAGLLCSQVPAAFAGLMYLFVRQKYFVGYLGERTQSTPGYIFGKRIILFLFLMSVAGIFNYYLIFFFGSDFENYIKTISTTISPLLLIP
# ASSAY_REMARKS: FLAP binding assay (Scintillation Proximity Assay, displacement of [125I]L-691,831)
# CONDITION_NOTES: read-out: Human FLAP SPA Binding (IC50 nM)
ASSAY_READOUT: IC50 (nM)
Write the value in nM as a bare number.

Problem: Which IC50 is listed for COCCNC(=O)c1[nH]c2ccccc2c1C1(c2ccc(-c3cnc(N)nc3)cc2)CCC1 [Example 193] ?
Result: 7.9

Problem: Which IC50 is listed for COC(=O)c1cc(-c2ccc(F)nc2)c(C2(c3ccc(-c4cnc(N)nc4)cc3)CCC2)[nH]1 [Example 179] ?
Result: 200

Problem: Which IC50 is listed for Nc1ncc(-c2ccc(C3(c4nc5cnccc5[nH]4)CCC3)cc2)cn1 [Example 126] ?
Result: 71

Problem: Which IC50 is listed for COc1cccc2c(C(C)(c3ccc(-c4cnc(N)nc4)cc3)C(C)C)c[nH]c12 (stereo not drawn) [Example 45] ?
Result: 1.4

Problem: Which IC50 is listed for Cc1cc2c(C3(c4ccc(-c5cnc(N)nc5)cc4)CCC3)c[nH]c2cn1 [Example 141] ?
Result: 5.8

Problem: Which IC50 is listed for Nc1ncc(-c2ccc(C3(c4c[nH]c5c(C(=O)NCCO)cccc45)CCC3)cc2)cn1 [Example 119] ?
Result: 1.5

Problem: Which IC50 is listed for Cn1cc(-c2coc(C(C)(c3ccc(-c4cnc(N)nc4)cc3)C3CC3)n2)cn1 (stereo not drawn) [Example 171] ?
Result: 7.4

Problem: Which IC50 is listed for Cn1cc(-c2coc(C3(c4ccc(-c5cnc(N)nc5)cc4)CCC3)n2)cn1 [Example 164] ?
Result: 3.7

Problem: Which IC50 is listed for CC(C)C(C)(c1ccc(-c2cnc(N)nc2)nc1)c1nc(-c2cnn(C)c2)no1 (stereo not drawn) [Example 22] ?
Result: 44
